Assignment: determine reported GI50 for the given compounds.
test system: TK-10 renal; assay: NCI tumour cell line growth inhibition, 48 h

IN: Quick check: GI50 of `COC(=O)c1c2c(c(C)[n+]([O-])c1C)C(=O)C=C(NCc1ccc(F)c(Cl)c1)C2=O` ?
OUT: 2.22 µM

IN: Consider the compound `CC(C)(O)CS(=O)(=O)Nc1ccc2c(c1)CCN(C(=O)COc1cccnc1)C2` and give its measured GI50.
OUT: > 100 µM

IN: Reported GI50 for `COc1ccc(/C=C/C(=O)c2ccc(SC)cc2)cc1OC` : what is it?
OUT: 14.7 µM

IN: # GI50 lookup, item COC(=O)C1=C(C(=O)ON)C2C=CC1(C(Cc1ccccc1)Nc1ccccc1)O2 (centres undefined)
OUT: 1.71 µM

IN: Which value of GI50 has been reported for `Cc1cc(S(N)(=O)=O)c(S/C(CC(C)C)=N\Nc2ccc([N+](=O)[O-])cc2)cc1Cl` in the records?
OUT: 2.93 µM

IN: I have this compound here, O=C1CCCCCCCC/C=C\CC(c2ccco2)O1 (centres undefined) , and I need its recorded GI50.
OUT: > 100 µM

IN: Request the reported GI50 associated with `N[C@@H]1CCCC[C@H]1N.O=C([O-])C(=O)[O-].[Pt+4]`
OUT: 21.2 µM

IN: For the compound `O=C(CN1CCN(CCCOc2c(-c3ccccc3)oc3ccccc3c2=O)CC1)Nc1ccc(Cl)cc1C(=O)c1ccccc1Cl` , what GI50 is on record?
OUT: 16.6 µM

IN: Recorded GI50 for `Cc1c(-c2c(-c3ccc(F)o3)sc3ncnc(O[C@H](Cc4ccccc4OCc4ccnn4CC(F)(F)F)C(=O)O)c23)ccc(OCCN2CCN(C)CC2)c1Cl` , please?
OUT: 5.31 µM

###

Kindly state TGI for each of the entries shown.
tested on: XF 498 CNS; experiment: NCI tumour cell line growth inhibition, 48 h

IN: For the compound shown here, CCC/C(=N/NC(=O)C(N)=O)C(CC)C(=O)CCC(=O)N(Cc1ccccc1)Cc1ccccc1 (stereo unspecified) , give the reported TGI.
OUT: > 100 µM

IN: Param item = Clc1ccc2c(c1)C1C(CO2)C(c2ccccc2)=NN1c1ccccc1 (stereo unspecified) ; retrieve measured TGI.
OUT: 59 µM

IN: Find the recorded TGI belonging to `O=c1cc2ccccc2nn1Cc1cccc(Cl)c1` and report it.
OUT: 94.5 µM

IN: Given the entry CCC1(c2c(F)c(F)c(N)c(F)c2F)CCC(=O)NC1=O (stereo unspecified) , report its measured TGI.
OUT: > 100 µM

IN: Looking for the measured TGI of `Oc1cc(O)c2c(-c3c(O)c(-c4ccc(O)c(O)c4)[o+]c4cc(O)cc(O)c34)c(O)c(-c3ccc(O)c(O)c3)[o+]c2c1` , can you help?
OUT: 87.6 µM

IN: Give its TGI value. Item: `COc1ccc(C(=O)Cc2c(C(=O)c3ccccc3)c3ccccc3n2C(=O)c2ccccc2)cc1`
OUT: > 100 µM

###

tested on: TK-10 renal; assay: NCI tumour cell line growth inhibition, 48 h
Measure: TGI (µM)
The response must be a number in µM with no trailing unit.

IN: Item under review: `N#Cc1c(Cl)cccc1Oc1ccc(S(=O)(=O)/N=C(\NN)Nc2ccc(Cl)cc2)cc1` . Reported TGI?
OUT: 79.6

IN: I would be grateful if you could share the reported TGI for `COc1cc(-c2nn(-c3cccc(NC(=O)Nc4cc(C(F)(F)F)cc(C(F)(F)F)c4)c3)cc2-c2ccncc2)ccc1Cl` .
OUT: 2.46
